test system: OVCAR-8 ovarian; experiment: NCI tumour cell line growth inhibition, 48 h
Parameter: TGI. Scope: all listed entries.
Field: numeric (µM). Do not append units.

# count of solved cases: 3
- compound: "CN1CCN(Cc2ccc(C(=O)Nc3cncc(C#Cc4cnc(N)c5ccccc45)c3)cc2C(F)(F)F)CC1"
  uom: "µM"
  TGI: 5.38
- compound: "CC(=O)OCC1OC(N2C(=O)/C(=C\\c3ccc(Cl)cc3)C(N)=Nc3ccccc32)C(OC(C)=O)C(OC(C)=O)C1OC(C)=O (stereo not given)"
  uom: "µM"
  TGI: 26.7
- compound: "Cc1ccc(-c2cc(N)n(-c3nc4c([nH]3)c(=O)n(C)c(=O)n4C)n2)cc1"
  uom: "µM"
  TGI: 15.3

# input for lookup
Param item: O=C(/C=C/c1ccccc1)/C=C/c1ccccc1O ; param system: OVCAR-8 ovarian; output TGI: 30.6

Taken from PubChem BioAssay (NCI).
